# Target desc: CBL-B (Homo sapiens)
# Construct: endogenous in cells; host or cells: Jurkat HiBit-IL2 reporter cells, C-CBL knocked out by CRISPR
# Test method notes: Jurkat HiBit-IL2 assay (c-CBL KO), reporter cell line expressing CBL-B only
# Assay type: cell-based
# Protocol conditions: c-CBL KO (CBL-B only), anti-CD3/anti-CD28 stimulation 4 hours, geometric mean, Table 16a, read-out: C-CBL KO EC50 (nM) GMean
EC50 values for the molecules below.
Dear colleague, please return just the value in nM, with no unit written.

Below are worked cases with known answers.
query: Give me measured EC50, please, for this molecule: C[C@H](N[C@H]1CCOC1)c1nc(C(F)(F)F)cc2c(-c3cccc([C@H](c4nncn4C)C4CCC4)c3)n[nH]c12 (single isomer, unassigned)
result: 54

query: Give me measured EC50, please, for this molecule: `C[C@H](N[C@H]1CCC(F)(F)C1)c1nc(C(F)(F)F)cc2c(-c3cccc([C@H](c4nncn4C)C4CCC4)c3)n[nH]c12`
result: 6

Others:
query: Give me measured EC50, please, for this molecule: C[C@@H](N[C@H]1C[C@@H](O)C1)c1nc(C(F)(F)F)cc2c(-c3cccc([C@H](c4nncn4C)C4CCC4)c3)n[nH]c12 (single isomer, unassigned)
result: 173

query: Give me measured EC50, please, for this molecule: CC(O)CNC(C)c1nc(C2CC2)cc2c(-c3cccc(C(c4nncn4C)C4CCC4)c3)n[nH]c12 (single isomer, unassigned) [Example H1]
result: 44

query: Give me measured EC50, please, for this molecule: C[C@H](N[C@@H](C)CO)c1nc(C(F)(F)F)cc2c(-c3cccc([C@H](c4nncn4C)C4CCC4)c3)n[nH]c12 (single isomer, unassigned)
result: 11

----------
# Target desc: C-CBL (Homo sapiens, UniProt P22681)
# Construct: endogenous in cells; host or cells: Jurkat HiBit-IL2 reporter cells, CBL-B knocked out by CRISPR
# Test method notes: Jurkat HiBit-IL2 assay (CBL-B KO), reporter cell line expressing C-CBL only
# Format: cell-based
# Protocol conditions: CBL-B KO (expressing C-CBL only), geometric mean, Table 16b (further repetition), read-out: CBL-B KO EC50 (nM) GMean
Readout name: EC50 (nM)
Dear colleague, please return just the value in nM, with no unit written.

query: Using C-CBL (Homo sapiens, UniProt P22681) as the test system, report measured EC50 of CC(NCC(C)(C)O)c1nc(C(F)(F)F)cc2c(-c3cccc([C@H](c4nncn4C)C4CCC4)c3)n[nH]c12 (single isomer, unassigned) [Example C117] .
result: 794

query: Using C-CBL (Homo sapiens, UniProt P22681) as the test system, report measured EC50 of CCC(CC)(CO)N[C@H](C)c1nc(C(F)(F)F)cc2c(-c3cccc([C@H](c4nncn4C)C4CCC4)c3)n[nH]c12 (single isomer, unassigned) .
result: 1030

query: Using C-CBL (Homo sapiens, UniProt P22681) as the test system, report measured EC50 of CC(N[C@H](C)[C@H](C)O)c1nc(C(F)(F)F)cc2c(-c3cccc([C@H](c4nncn4C)C4CCC4)c3)n[nH]c12 (single isomer, unassigned) .
result: 466

----------
# Target desc: C-CBL (residues 46-435) (Homo sapiens)
# Construct: Purified CBL-B (residues 36-427) and C-CBL (residues 46-435) proteins from baculovirus-infected insect cells; made in house; host or cells: baculovirus-infected insect cells
# Sequence (P22681 46-435): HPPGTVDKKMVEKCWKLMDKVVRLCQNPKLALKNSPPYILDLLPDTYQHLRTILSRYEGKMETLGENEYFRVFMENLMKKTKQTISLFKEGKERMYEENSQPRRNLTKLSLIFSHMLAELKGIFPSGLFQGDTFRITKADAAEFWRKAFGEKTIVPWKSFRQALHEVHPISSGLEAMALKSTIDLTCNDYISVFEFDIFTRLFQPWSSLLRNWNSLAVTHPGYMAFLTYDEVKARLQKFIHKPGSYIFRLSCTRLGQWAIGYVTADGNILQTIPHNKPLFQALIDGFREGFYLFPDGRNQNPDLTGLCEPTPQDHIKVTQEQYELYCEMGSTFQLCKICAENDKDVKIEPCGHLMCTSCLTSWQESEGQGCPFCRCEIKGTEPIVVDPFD
# Test method notes: Ligand Displacement Assay (LDA), HTRF competitive binding against BODIPY-labeled fluorescent tracer, C-CBL
# Protocol conditions: geometric mean of the number of tests, read-out: C-CBL Ki (nM) GMean
# Text: Ligand Displacement Assay (LDA) […]
Ki values for the compounds below.
Dear colleague, please return just the value in nM, with no unit written.

query: Give me measured Ki, please, for this compound: C[C@H](N[C@H]1COC[C@H]1O)c1nc(C(F)(F)F)cc2c(-c3cccc([C@H](c4nncn4C)C4CCC4)c3)n[nH]c12 (single isomer, unassigned) [Example D57]
result: 46.7

query: Give me measured Ki, please, for this compound: C[C@@H](c1nc(C(F)(F)F)cc2c(-c3cccc(C4(Cc5nncn5C)COC4)c3)n[nH]c12)N1C[C@H](F)[C@@H](F)C1 (single isomer, unassigned)
result: 28.1

Others:
query: Give me measured Ki, please, for this compound: CC(NC1CC(F)(F)C1)c1nc(C(F)(F)F)cc2c(-c3cccc(C4(Cc5nncn5C)COC4)c3)n[nH]c12 (single isomer, unassigned) [Example C94]
result: 14.9

----------
# Target desc: CBL-B (residues 36-427) (Homo sapiens, UniProt Q13191)
# Construct: Purified CBL-B (residues 36-427) and C-CBL (residues 46-435) proteins from baculovirus-infected insect cells; made in house; host or cells: baculovirus-infected insect cells
# Test method notes: Ligand Displacement Assay (LDA), HTRF competitive binding against BODIPY-labeled fluorescent tracer, CBL-B
# Protocol conditions: geometric mean of the number of tests, read-out: CBL-B Ki (nM) GMean
The threshold is 8 nM. Values of Ki beneath it are tagged condition met; values meeting or exceeding it are tagged condition not met.

Sample answers from the record:
query: # TODO verify Ki < 8 nM strictly for this molecule: CC(O)c1nc(C(F)(F)F)cc2c(-c3cccc(C4(Cc5nncn5C)COC4)c3)n[nH]c12 (single isomer, unassigned) [Example K11]
result: condition not met

query: # TODO verify Ki < 8 nM strictly for this molecule: CCC(c1cccc(-c2n[nH]c3cnc(C(F)(F)F)cc23)c1)c1nncn1C (single isomer, unassigned)
result: condition not met

# evaluate next
query: # TODO verify Ki < 8 nM strictly for this molecule: C[C@@H](N[C@H]1CCC(F)(F)C1)c1nc(C(F)(F)F)cc2c(-c3cccc(C4(Cc5nncn5C)COC4)c3)n[nH]c12 (single isomer, unassigned)
result: condition met

----------
EC50 values for the molecules below.
# Target desc: CBL-B (Homo sapiens, UniProt Q13191)
# Construct: endogenous in cells; host or cells: Jurkat HiBit-IL2 reporter cells, C-CBL knocked out by CRISPR
# Test method notes: Jurkat HiBit-IL2 assay (c-CBL KO), reporter cell line expressing CBL-B only
# Format: cell-based
# Protocol conditions: C-CBL KO (expressing CBL-B only), geometric mean, Table 16b (further repetition), read-out: C-CBL KO EC50 (nM) GMean
Dear colleague, please return just the value in nM, with no unit written.

Below are worked cases with known answers.
query: Give me measured EC50, please, for this molecule: C[C@@H](NC1CCCC1)c1nc(C(F)(F)F)cc2c(-c3cccc([C@H](c4nncn4C)C4CCC4)c3)n[nH]c12 (single isomer, unassigned)
result: 6

query: Give me measured EC50, please, for this molecule: C[C@@H](c1nc(C(F)(F)F)cc2c(-c3cccc([C@H](c4nncn4C)C4CCC4)c3)n[nH]c12)N1CC(C)(O)C1 (single isomer, unassigned)
result: 72

query: Give me measured EC50, please, for this molecule: `Cn1cnnc1[C@@H](c1cccc(-c2n[nH]c3cnc(C(F)(F)F)cc23)c1)C1CCC1`
result: 1810

query: Give me measured EC50, please, for this molecule: CC(NCCO)c1nc(C(F)(F)F)cc2c(-c3cccc([C@H](c4nncn4C)C4CCC4)c3)n[nH]c12 (single isomer, unassigned) [Example C42]
result: 94

query: Give me measured EC50, please, for this molecule: C[C@H](c1nc(C(F)(F)F)cc2c(-c3cccc([C@H](c4nncn4C)C4CCC4)c3)n[nH]c12)N1CC(C)(O)C1 (single isomer, unassigned)
result: 321

Now for the molecule whose EC50 we want.
query: Give me measured EC50, please, for this molecule: `C[C@@H](N[C@@H]1CC[C@H](O)C1)c1nc(C(F)(F)F)cc2c(-c3cccc([C@H](c4nncn4C)C4CCC4)c3)n[nH]c12`
result: 46

----------
Ki values for the compounds below.
# Target desc: C-CBL (residues 46-435) (Homo sapiens, UniProt P22681)
# Construct: Purified CBL-B (residues 36-427) and C-CBL (residues 46-435) proteins from baculovirus-infected insect cells; made in house; host or cells: baculovirus-infected insect cells
# Test method notes: Ligand Displacement Assay (LDA), HTRF competitive binding against BODIPY-labeled fluorescent tracer, C-CBL
# Protocol conditions: geometric mean of the number of tests, read-out: C-CBL Ki (nM) GMean
Dear colleague, please return just the value in nM, with no unit written.

query: Using C-CBL (residues 46-435) (Homo sapiens, UniProt P22681) as the test system, report measured Ki of Cn1cnnc1[C@@H](c1cccc(-c2n[nH]c3c(CN[C@@H]4CCC[C@@H]4O)nc(C(F)(F)F)cc23)c1)C1CCC1 [Example C1] .
result: 7.1

query: Using C-CBL (residues 46-435) (Homo sapiens, UniProt P22681) as the test system, report measured Ki of Cn1cnnc1[C@@H](c1cccc(-c2n[nH]c3c(CN[C@@H]4CC[C@@H](O)C4)nc(C(F)(F)F)cc23)c1)C1CCC1 [Example D35] .
result: 100

Now for the compound whose Ki we want.
query: Using C-CBL (residues 46-435) (Homo sapiens, UniProt P22681) as the test system, report measured Ki of Cn1cnnc1CC1(c2cccc(-c3n[nH]c4c(CN5C[C@H](F)[C@@H](F)C5)nc(C(F)(F)F)cc34)c2)COC1 [Example C68] .
result: 124
